# protocolText: Stability of compounds in human liver microsomes
# Format: in vitro ADME
# condition: predicted from HLM data, human
Parameter Predicted Max. Bioavailability (% F): see the listing below.

molecule	Predicted Max. Bioavailability (% F)
COc1cc2c(cc1OCCF)CCN1C[C@@H](CC(C)(C)C)[C@H](O)C[C@H]21 [Compound 4-18]	71 % F
COc1cc2c(cc1OCC(F)(F)Cl)CCN1C[C@@H](CC(C)(C)C)[C@H](O)C[C@H]21 [Compound 4-65]	78 % F
COc1cc2c(cc1OCC1(F)CCC1)CCN1C[C@@H](CC(C)(C)C)[C@H](O)C[C@H]21 [Compound 4-61]	32 % F
COc1cc2c(cc1OCC1(F)CC1)CCN1C[C@@H](CC(C)(C)C)[C@H](O)C[C@H]21 [Compound 4-31]	≥87 % F
COc1cc2c(cc1OCC(C)(C)O)CCN1C[C@@H](CC(C)(C)C)[C@H](O)C[C@H]21 [Compound 4-47]	≥87 % F
COc1cc2c(cc1OCCOC1(C#N)CCOCC1)CCN1C[C@@H](CC(C)(C)C)[C@H](O)C[C@H]21 [Compound 4-41]	31 % F
COc1cc2c(cc1OC[C@@H](C)O)CCN1C[C@@H](CC(C)(C)C)[C@H](O)C[C@H]21 [Compound 4-55]	≥87 % F
COc1cc2c(cc1OCCCC(F)(F)F)CCN1C[C@@H](CC(C)(C)C)[C@H](O)C[C@H]21 [Compound 4-120]	≥87 % F
COc1cc2c(cc1OCCC(F)(F)F)CCN1C[C@@H](CC(C)(C)C)[C@@H](O)C[C@H]21 [Compound 4-12]	≥87 % F
COc1cc2c(cc1OC[C@H](C)O)CCN1C[C@@H](CC(C)(C)C)[C@H](O)C[C@H]21 [Compound 4-114]	≥87 % F
COc1cc2c(cc1OC[C@H](O)C(F)(F)F)CCN1C[C@@H](CC(C)(C)C)[C@H](O)C[C@H]21 [Compound 4-50]	≥87 % F
COc1cc2c(cc1OC1CCC1)CCN1C[C@@H](CC(C)(C)C)[C@H](O)C[C@H]21 [Compound 4-32]	23 % F
COc1cc2c(cc1OCC(O)CC(F)(F)F)CCN1C[C@@H](CC(C)(C)C)[C@H](O)C[C@H]21 (stereo partly shown) [Compound 4-62]	≥87 % F
COc1cc2c(cc1OC1COC1)CCN1C[C@@H](CC(C)(C)C)[C@H](O)C[C@H]21 [Compound 4-30]	≥87 % F
COc1cc2c(cc1OCCOCC#N)CCN1C[C@@H](CC(C)(C)C)[C@H](O)C[C@H]21 [Compound 4-70]	64 % F
COc1cc2c(cc1OCCC(F)(F)F)CCN1C[C@H](CC(C)(C)C)[C@@H](O)C[C@@H]21 [Compound 4-9]	≥87 % F
COc1cc2c(cc1OCC(F)(F)F)CCN1C[C@@H](CC(C)(C)C)[C@@H](O)C[C@H]21 [Compound 4-16]	≥87 % F
COc1cc2c(cc1OCCOC(C#N)C1CC1)CCN1C[C@@H](CC(C)(C)C)[C@H](O)C[C@H]21 (stereo partly shown) [Compound 4-43]	23 % F
COc1cc2c(cc1OCc1cocn1)CCN1C[C@@H](CC(C)(C)C)[C@H](O)C[C@H]21 [Compound 4-75]	63 % F
COCCOc1cc2c(cc1OC)[C@H]1C[C@@H](O)[C@H](CC(C)(C)C)CN1CC2 [Compound 4-26]	58 % F
COc1cc2c(cc1OCC1CCC1)CCN1C[C@@H](CC(C)(C)C)[C@H](O)C[C@H]21 [Compound 4-119]	13.00 % F
COc1cc2c(cc1OCCC(F)(F)F)CCN1C[C@@H](CC(C)(C)C)[C@H](O)C[C@H]21 [Compound 4-15]	83 % F
COc1cc2c(cc1OCCN1CCC(F)(F)C1)CCN1C[C@@H](CC(C)(C)C)[C@H](O)C[C@H]21 [Compound 4-71]	34 % F
COc1cc2c(cc1OCCc1ccc(C(F)(F)F)cc1)CCN1C[C@@H](CC(C)(C)C)[C@H](O)C[C@H]21 [Compound 4-74]	37 % F
COc1cc2c(cc1OCC1CC1(F)F)CCN1C[C@@H](CC(C)(C)C)[C@H](O)C[C@H]21 (stereo partly shown) [Compound 4-121]	82 % F
COc1cc2c(cc1OCCCCC(F)(F)F)CCN1C[C@@H](CC(C)(C)C)[C@H](O)C[C@H]21 [Compound 4-115]	68 % F
COc1cc2c(cc1OCC1(O)CCC(F)(F)CC1)CCN1C[C@@H](CC(C)(C)C)[C@H](O)C[C@H]21 [Compound 4-76]	≥87 % F
COc1cc2c(cc1OCCOC(C)(C)C#N)CCN1C[C@@H](CC(C)(C)C)[C@H](O)C[C@H]21 [Compound 4-44]	43 % F
